biological target: OXA-48 (Klebsiella pneumoniae); test: Ki, nitrocefin cleavage by purified enzyme, OXA-48; details: nitrocefin reporter substrate; read-out: Ki (OXA-48, NCF)
Sequence (Q6XEC0 23-265, looked up, species assumed): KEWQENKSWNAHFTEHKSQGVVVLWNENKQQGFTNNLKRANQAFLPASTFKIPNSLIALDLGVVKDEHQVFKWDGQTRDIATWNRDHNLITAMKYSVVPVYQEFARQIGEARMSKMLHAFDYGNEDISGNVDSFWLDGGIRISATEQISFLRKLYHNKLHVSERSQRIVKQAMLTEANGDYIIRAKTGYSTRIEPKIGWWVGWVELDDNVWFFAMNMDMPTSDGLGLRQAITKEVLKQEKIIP
pKi: −log10 of the molar value.
readout-kind: pKi

molecule	recorded-measurement
CSCC(=O)N[C@H]1Cc2ccc(OCCO)c(C(=O)O)c2OB1O	> 9.00
CSCC(=O)N[C@H]1Cc2ccc(SCC3CCNCC3)c(C(=O)O)c2OB1O	> 9.00
NC(=O)CC(=O)N[C@H]1Cc2ccc(F)c(C(=O)O)c2OB1O	> 9.00
COc1ccc2c(c1C(=O)O)OB(O)[C@@H](NC(=O)c1nnc(N)s1)C2	> 9.00
O=C(CSC(F)F)N[C@H]1Cc2ccc(F)c(C(=O)O)c2OB1O	8.00 to 9.00
O=C(CSC1CNC1)N[C@H]1Cc2ccc(F)c(C(=O)O)c2OB1O	< 8.00
CSCC(=O)N[C@@H]1Cc2ccc(F)c(C(=O)O)c2OB1O	8.00 to 9.00
CSCC(=O)N[C@H]1Cc2ccc(OCC(=O)O)c(C(=O)O)c2OB1O	> 9.00
CS(=O)(=O)CC(=O)N[C@H]1Cc2ccc(F)c(C(=O)O)c2OB1O	< 8.00
O=C(O)CC(=O)N[C@H]1Cc2cccc(C(=O)O)c2OB1O [D, reference compound]	> 9.00
CSCC(=O)N[C@H]1Cc2ccc(Sc3nncn3C)c(C(=O)O)c2OB1O	> 9.00
CSCC(=O)N[C@H]1Cc2ccc(F)c(C(=O)O)c2OB1O	< 8.00
CSCC(=O)N[C@H]1Cc2ccc(SC)c(C(=O)O)c2OB1O	8.00 to 9.00
CSCC(=O)N[C@H]1Cc2ccc(Sc3nnc(N)s3)c(C(=O)O)c2OB1O	> 9.00
O=C(Cc1cccs1)N[C@H]1Cc2ccc(F)c(C(=O)O)c2OB1O	> 9.00
NC(=O)CC(=O)N[C@H]1Cc2cccc(C(=O)O)c2OB1O [E, reference compound]	> 9.00
CSCC(=O)N[C@H]1Cc2ccc(O)c(C(=O)O)c2OB1O	> 9.00
Nc1nnc(C(=O)N[C@H]2Cc3ccc(F)c(C(=O)O)c3OB2O)s1	> 9.00

* * *

This listing pairs compounds with measured Measured Initial Conc. in Serum.
experiment: Serum stability of prodrugs, rat serum; type: in vitro ADME; settings: 37 degrees, theoretical initial conc. 20 ug/mL

query-smiles	Measured Initial Conc. in Serum
CSCC(=O)N[C@H]1Cc2ccc(F)c(C(=O)OCOC(=O)c3ccccc3)c2OB1O	18.0 µg/mL
CSCC(=O)N[C@H]1Cc2cc(F)c(F)c(C(=O)OCOC(=O)C(C)C)c2OB1O	18.6 µg/mL
CSCC(=O)N[C@H]1Cc2ccc(F)c(C(=O)OCOC(=O)C(C)(C)C)c2OB1O	14.6 µg/mL
COc1ccc2c(c1C(=O)OCOC(=O)OC(C)C)OB(O)[C@@H](NC(=O)CSC)C2	25.9 µg/mL
CCC(=O)OCOC(=O)c1c(F)ccc2c1OB(O)[C@@H](NC(=O)CSC)C2	20.2 µg/mL
COc1ccc2c(c1C(=O)OCOC(=O)C(C)C)OB(O)[C@@H](NC(=O)CSC)C2	24.2 µg/mL
CSCC(=O)N[C@H]1Cc2cc(Cl)c(F)c(C(=O)OCOC(=O)C(C)C)c2OB1O	18.7 µg/mL
CCOC(=O)OCOC(=O)c1c(OC)ccc2c1OB(O)[C@@H](NC(=O)CSC)C2	20.6 µg/mL

* * *

experiment: Serum stability of prodrugs, human serum; assay type: in vitro ADME; conditions: 37 degrees, theoretical initial conc. 20 ug/mL
# label = 1.0 if Measured Initial Conc. in Serum >= 20 µg/mL else 0.0

query-smiles	qualitative-label
COc1ccc2c(c1C(=O)OCOC(=O)C(C)C)OB(O)[C@@H](NC(=O)CSC)C2	1.0
COc1ccc2c(c1C(=O)OCOC(=O)OC(C)C)OB(O)[C@@H](NC(=O)CSC)C2	1.0
CSCC(=O)N[C@H]1Cc2ccc(F)c(C(=O)OCOC(=O)C(C)(C)C)c2OB1O	0.0
CSCC(=O)N[C@H]1Cc2ccc(F)c(C(=O)OCOC(=O)c3ccccc3)c2OB1O	0.0
CCC(=O)OCOC(=O)c1c(F)ccc2c1OB(O)[C@@H](NC(=O)CSC)C2	1.0
CSCC(=O)N[C@H]1Cc2cc(Cl)c(F)c(C(=O)OCOC(=O)C(C)C)c2OB1O	0.0
CSCC(=O)N[C@H]1Cc2ccc(F)c(C(=O)OCOC(=O)C(C)C)c2OB1O	0.0

* * *

assay: Serum stability of prodrugs, human serum; assay type: in vitro ADME; settings: 37 degrees, theoretical initial conc. 20 ug/mL

query-smiles	Measured Initial Conc. in Serum [µg/mL]
CSCC(=O)N[C@H]1Cc2ccc(SC)c(C(=O)OCOC(=O)C(C)C)c2OB1O	18.6
CSCC(=O)N[C@H]1Cc2cc(F)c(F)c(C(=O)OCOC(=O)C(C)C)c2OB1O	18.4
CCOC(=O)OCOC(=O)c1c(OC)ccc2c1OB(O)[C@@H](NC(=O)CSC)C2	24.4

* * *

molecular target: Pa AmpC (Pseudomonas aeruginosa, UniProt P24735); assay: Ki, nitrocefin cleavage by purified enzyme, Pa AmpC; settings: nitrocefin reporter substrate; read-out: Ki (Pa AmpC, NCF)
Sequence (P24735 27-397): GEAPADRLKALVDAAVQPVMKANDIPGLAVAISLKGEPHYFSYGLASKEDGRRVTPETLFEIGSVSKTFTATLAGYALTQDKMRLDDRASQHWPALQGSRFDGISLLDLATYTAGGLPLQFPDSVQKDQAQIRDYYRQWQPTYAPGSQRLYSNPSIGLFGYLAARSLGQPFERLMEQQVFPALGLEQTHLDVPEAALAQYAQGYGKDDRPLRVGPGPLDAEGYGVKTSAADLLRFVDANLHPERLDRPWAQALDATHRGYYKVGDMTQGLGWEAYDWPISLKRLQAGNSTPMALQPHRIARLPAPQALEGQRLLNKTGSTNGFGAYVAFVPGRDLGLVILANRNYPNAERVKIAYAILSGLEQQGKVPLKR
readout-kind: Ki

compound	target-desc	recorded-measurement
COc1ccc2c(c1C(=O)O)OB(O)[C@@H](NC(=O)c1nnc(N)s1)C2 [Compound 28]	Pa AmpC (Pseudomonas aeruginosa, UniProt P24735)	1 to 10 nM
CSCC(=O)N[C@H]1Cc2ccc(O)c(C(=O)O)c2OB1O [Compound 34]	Pa AmpC (Pseudomonas aeruginosa, UniProt P24735)	> 10 nM
O=C(CSC1CNC1)N[C@H]1Cc2cccc(C(=O)O)c2OB1O [B, reference compound]	Pa AmpC (Pseudomonas aeruginosa, UniProt P24735)	1 to 10 nM
COc1ccc2c(c1C(=O)O)OB(O)[C@@H](NC(=O)CC(N)=O)C2 [Compound 27]	Pa AmpC (Pseudomonas aeruginosa, UniProt P24735)	> 10 nM
O=C(CSC(F)F)N[C@H]1Cc2cccc(C(=O)O)c2OB1O [C, reference compound]	Pa AmpC (Pseudomonas aeruginosa, UniProt P24735)	< 1 nM
NC(=O)CC(=O)N[C@H]1Cc2ccc(F)c(C(=O)O)c2OB1O [Compound 5]	Pa AmpC (Pseudomonas aeruginosa, UniProt P24735)	> 10 nM
O=C(CSC1CNC1)N[C@H]1Cc2ccc(F)c(C(=O)O)c2OB1O [Compound 2]	Pa AmpC (Pseudomonas aeruginosa, UniProt P24735)	> 10 nM
CSCC(=O)N[C@H]1Cc2ccc(SCC3CCNCC3)c(C(=O)O)c2OB1O [Compound 24]	Pa AmpC (Pseudomonas aeruginosa, UniProt P24735)	> 10 nM
CSCC(=O)N[C@H]1Cc2ccc(SC3CNC3)c(C(=O)O)c2OB1O [Compound 11]	Pa AmpC (Pseudomonas aeruginosa, UniProt P24735)	> 10 nM

* * *

experiment: Serum stability of prodrugs, human serum; format: in vitro ADME; settings: human serum; prodrug; theoretical initial conc. 20 ug/mL

query-smiles	Conc. at t = 3 hr (ng/mL)
CSCC(=O)N[C@H]1Cc2ccc(F)c(C(=O)OCOC(=O)C(C)C)c2OB1O	160
CSCC(=O)N[C@H]1Cc2ccc(F)c(C(=O)OCOC(=O)c3ccccc3)c2OB1O	3160
CCOC(=O)OCOC(=O)c1c(F)ccc2c1OB(O)[C@@H](NC(=O)CSC)C2	1170
CCOC(=O)OCOC(=O)c1c(OC)ccc2c1OB(O)[C@@H](NC(=O)CSC)C2	20900
CSCC(=O)N[C@H]1Cc2ccc(F)c(C(=O)OCOC(=O)C(C)(C)C)c2OB1O	6270
CSCC(=O)N[C@H]1Cc2cc(Cl)c(F)c(C(=O)OCOC(=O)C(C)C)c2OB1O	1010
CSCC(=O)N[C@H]1Cc2cc(F)c(F)c(C(=O)OCOC(=O)C(C)C)c2OB1O	580
COc1ccc2c(c1C(=O)OCOC(=O)C(C)C)OB(O)[C@@H](NC(=O)CSC)C2	16500
CCC(=O)OCOC(=O)c1c(F)ccc2c1OB(O)[C@@H](NC(=O)CSC)C2	270
CSCC(=O)N[C@H]1Cc2ccc(SC)c(C(=O)OCOC(=O)C(C)C)c2OB1O	12500
COc1ccc2c(c1C(=O)OCOC(=O)OC(C)C)OB(O)[C@@H](NC(=O)CSC)C2	19000

* * *

The following compounds are listed with their measured Measured Initial Conc. in Serum values.
experiment: Serum stability of prodrugs, rat serum; assay type: in vitro ADME; conditions: 37 degrees, theoretical initial conc. 20 ug/mL

query-smiles	quantity-unit	Measured Initial Conc. in Serum
CCOC(=O)OCOC(=O)c1c(F)ccc2c1OB(O)[C@@H](NC(=O)CSC)C2	µg/mL	17.4
CSCC(=O)N[C@H]1Cc2ccc(SC)c(C(=O)OCOC(=O)C(C)C)c2OB1O	µg/mL	18.4
CSCC(=O)N[C@H]1Cc2ccc(F)c(C(=O)OCOC(=O)C(C)C)c2OB1O	µg/mL	9.22
